Test system: MDA-MB-435
ASSAY_NOTES: NCI tumour cell line growth inhibition, 48 h
Calls of active or inactive are those of the source. Rule as the data show it: active = GI50 up to about 1.1 µM and inactive = higher.
The entries below are paired with their reported GI50.
RESULT_TYPE: GI50

- COMPOUND: "Cc1ccc(O)cc1.Cc1cccc(O)c1.Cc1ccccc1O"
  RESULT_TYPE: "GI50"
  MEAS_VALUE: "> 100 µM (inactive)"
- COMPOUND: "COc1ccc(C2SC(C)C(=O)N2c2nc(-c3nc(-c4ccc(Cl)cc4)cs3)cs2)cc1 (stereo not given)"
  RESULT_TYPE: "GI50"
  MEAS_VALUE: "> 100 µM (inactive)"
- COMPOUND: "COC(=O)CCCc1nc2ccccc2nc1/N=N/c1ccccc1"
  RESULT_TYPE: "GI50"
  MEAS_VALUE: "58.7 µM (inactive)"
- COMPOUND: "O=C(N[C@H](CO)[C@H](O)c1ccc([N+](=O)[O-])cc1)C(Cl)Cl"
  RESULT_TYPE: "GI50"
  MEAS_VALUE: "> 100 µM (inactive)"
- COMPOUND: "N/C(=N\\n1c(=S)[nH]c2ccccc2c1=O)Nn1c(=S)[nH]c2ccccc2c1=O"
  RESULT_TYPE: "GI50"
  MEAS_VALUE: "36.9 µM (inactive)"

FYI, the data here is from ChEMBL document CHEMBL1201862.
